All values here come from ChEMBL document CHEMBL2424622.

biological target: 5'-AMP-activated protein kinase catalytic subunit alpha-2 (Homo sapiens); test: Competitive binding affinity to AMPKalpha2 (unknown origin) at 10 uM in presence of ATP relative to control
OBSERVATION TYPE: inhibition

Query (compound): "O[C@H]1CC[C@H](Nc2nccc(-c3n[nH]c4ccccc34)n2)CC1" ; field requested: inhibition
89%

###

biological target: Vascular endothelial growth factor receptor 2 (Homo sapiens) (UniProt P35968); assay: Competitive binding affinity to VEGFR2 (unknown origin) at 10 uM in presence of ATP relative to control
Sequence (P35968 whole entry): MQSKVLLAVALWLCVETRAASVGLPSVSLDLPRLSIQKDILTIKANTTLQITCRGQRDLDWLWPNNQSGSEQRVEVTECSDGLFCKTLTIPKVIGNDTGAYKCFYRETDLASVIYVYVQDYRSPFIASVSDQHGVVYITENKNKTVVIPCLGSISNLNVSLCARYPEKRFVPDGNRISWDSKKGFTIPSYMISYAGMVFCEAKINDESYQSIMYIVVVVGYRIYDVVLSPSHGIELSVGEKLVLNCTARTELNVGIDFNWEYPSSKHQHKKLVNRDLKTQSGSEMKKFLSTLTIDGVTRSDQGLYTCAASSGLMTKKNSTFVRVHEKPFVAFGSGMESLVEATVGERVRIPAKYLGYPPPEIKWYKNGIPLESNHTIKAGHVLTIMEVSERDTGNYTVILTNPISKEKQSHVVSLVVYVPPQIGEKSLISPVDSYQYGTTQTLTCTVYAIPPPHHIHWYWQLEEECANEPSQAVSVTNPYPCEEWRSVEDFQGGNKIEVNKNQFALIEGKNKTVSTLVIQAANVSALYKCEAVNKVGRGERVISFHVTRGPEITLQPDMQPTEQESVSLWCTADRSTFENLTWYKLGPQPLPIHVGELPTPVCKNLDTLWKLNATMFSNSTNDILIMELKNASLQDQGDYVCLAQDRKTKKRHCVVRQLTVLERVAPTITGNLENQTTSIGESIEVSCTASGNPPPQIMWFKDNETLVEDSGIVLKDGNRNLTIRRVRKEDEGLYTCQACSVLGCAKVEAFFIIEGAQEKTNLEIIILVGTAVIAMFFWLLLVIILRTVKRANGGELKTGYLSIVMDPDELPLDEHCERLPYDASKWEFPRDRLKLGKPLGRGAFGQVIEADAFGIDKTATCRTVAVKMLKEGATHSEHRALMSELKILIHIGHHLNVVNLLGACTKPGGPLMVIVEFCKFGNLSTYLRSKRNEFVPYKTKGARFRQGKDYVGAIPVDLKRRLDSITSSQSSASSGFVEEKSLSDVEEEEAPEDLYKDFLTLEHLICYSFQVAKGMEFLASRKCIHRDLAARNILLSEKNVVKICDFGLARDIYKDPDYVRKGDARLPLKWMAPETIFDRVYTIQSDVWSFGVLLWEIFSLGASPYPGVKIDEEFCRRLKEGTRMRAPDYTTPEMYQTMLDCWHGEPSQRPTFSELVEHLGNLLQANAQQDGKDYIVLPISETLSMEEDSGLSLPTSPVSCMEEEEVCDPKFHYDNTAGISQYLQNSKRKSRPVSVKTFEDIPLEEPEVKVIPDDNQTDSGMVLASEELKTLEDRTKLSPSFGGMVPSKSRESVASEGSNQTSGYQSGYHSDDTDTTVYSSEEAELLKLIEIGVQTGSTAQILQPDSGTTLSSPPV
Collected inhibition values appear next to each entry.

Field: example entries. Status: answers known.
Query (compound): "O[C@H]1CC[C@H](Nc2nccc(-n3ncc4ccccc43)n2)CC1" ; field requested: inhibition
< 50%

Consider next the compound "O[C@H]1CC[C@H](Nc2nccc(-n3nnc4ccccc43)n2)CC1" in the same way.
< 50%

Consider next the compound "O=C([C@H]1CC[C@H](Nc2nccc(-n3nnc4ccccc43)n2)CC1)N1CCOCC1" in the same way.
< 50%

Consider next the compound "O[C@H]1CC[C@H](Nc2nccc(-n3ccc4ccccc43)n2)CC1" in the same way.
< 50%

Consider next the compound "N[C@H]1CC[C@H](Nc2nccc(-n3nnc4ccccc43)n2)CC1" in the same way.
< 50%

Now examine the next entry.
Query (compound): "O[C@H]1CC[C@H](Nc2nccc(-c3n[nH]c4ccccc34)n2)CC1" ; field requested: inhibition
91%

###

biological target: UniProt P12931; assay: Competitive binding affinity to SRC (unknown origin) at 10 uM in presence of ATP relative to control
Sequence (P12931 2-536 limits assumed): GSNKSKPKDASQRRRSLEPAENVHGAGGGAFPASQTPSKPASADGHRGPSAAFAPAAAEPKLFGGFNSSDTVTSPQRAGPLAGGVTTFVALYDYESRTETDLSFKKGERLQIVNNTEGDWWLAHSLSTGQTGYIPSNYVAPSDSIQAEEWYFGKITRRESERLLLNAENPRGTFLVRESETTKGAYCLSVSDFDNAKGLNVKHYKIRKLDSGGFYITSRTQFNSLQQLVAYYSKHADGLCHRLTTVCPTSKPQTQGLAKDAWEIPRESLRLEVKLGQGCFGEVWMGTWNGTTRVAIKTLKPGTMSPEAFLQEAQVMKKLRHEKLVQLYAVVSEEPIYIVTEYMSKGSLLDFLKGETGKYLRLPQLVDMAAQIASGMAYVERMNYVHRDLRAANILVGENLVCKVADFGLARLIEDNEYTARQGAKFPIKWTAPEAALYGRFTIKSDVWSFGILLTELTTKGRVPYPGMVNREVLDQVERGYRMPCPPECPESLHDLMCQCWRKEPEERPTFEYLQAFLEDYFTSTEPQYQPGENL
OBSERVATION TYPE: inhibition

Query (molecule): "O=C([C@H]1CC[C@H](Nc2nccc(-n3nnc4ccccc43)n2)CC1)N1CCOCC1" ; field requested: inhibition
< 50%

Consider next the molecule "N[C@H]1CC[C@H](Nc2nccc(-n3nnc4ccccc43)n2)CC1" in the same way.
< 50%

Consider next the molecule "O[C@H]1CC[C@H](Nc2nccc(-c3n[nH]c4ccccc34)n2)CC1" in the same way.
78%

Consider next the molecule "O[C@H]1CC[C@H](Nc2nccc(-n3ccc4ccccc43)n2)CC1" in the same way.
< 50%

Consider next the molecule "O[C@H]1CC[C@H](Nc2nccc(-n3nnc4ccccc43)n2)CC1" in the same way.
< 50%

Now examine the next entry.
Query (molecule): "O[C@H]1CC[C@H](Nc2nccc(-n3ncc4ccccc43)n2)CC1" ; field requested: inhibition
< 50%

###

molecular target: High affinity nerve growth factor receptor (Homo sapiens) (UniProt P04629); assay: Competitive binding affinity to TRKA (unknown origin) at 10 uM in presence of ATP relative to control
Sequence (P04629 33-796 limits assumed): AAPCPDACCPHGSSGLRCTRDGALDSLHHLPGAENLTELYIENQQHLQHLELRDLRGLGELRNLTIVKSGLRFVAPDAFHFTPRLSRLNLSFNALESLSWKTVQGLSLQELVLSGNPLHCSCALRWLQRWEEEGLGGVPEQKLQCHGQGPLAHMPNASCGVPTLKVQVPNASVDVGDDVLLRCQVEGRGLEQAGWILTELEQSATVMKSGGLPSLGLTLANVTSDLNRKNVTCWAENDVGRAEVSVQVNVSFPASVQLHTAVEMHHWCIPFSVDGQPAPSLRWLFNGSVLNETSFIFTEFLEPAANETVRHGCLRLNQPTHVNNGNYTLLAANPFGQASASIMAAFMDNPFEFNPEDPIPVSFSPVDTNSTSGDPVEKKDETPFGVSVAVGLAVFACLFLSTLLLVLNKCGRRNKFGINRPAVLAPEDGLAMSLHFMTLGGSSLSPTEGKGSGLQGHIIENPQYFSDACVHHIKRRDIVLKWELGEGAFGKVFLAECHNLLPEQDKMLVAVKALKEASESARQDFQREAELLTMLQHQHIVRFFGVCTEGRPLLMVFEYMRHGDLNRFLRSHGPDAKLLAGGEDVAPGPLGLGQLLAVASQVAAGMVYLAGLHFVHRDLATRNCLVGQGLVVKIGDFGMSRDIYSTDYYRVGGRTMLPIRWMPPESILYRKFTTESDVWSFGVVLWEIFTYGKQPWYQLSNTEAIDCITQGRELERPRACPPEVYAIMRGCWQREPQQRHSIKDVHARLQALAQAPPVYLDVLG
OBSERVATION TYPE: inhibition

Query (compound): "N[C@H]1CC[C@H](Nc2nccc(-n3nnc4ccccc43)n2)CC1" ; field requested: inhibition
< 50%

Further cases:
Query (compound): "O[C@H]1CC[C@H](Nc2nccc(-n3ncc4ccccc43)n2)CC1" ; field requested: inhibition
< 50%

Consider next the compound "O[C@H]1CC[C@H](Nc2nccc(-n3ccc4ccccc43)n2)CC1" in the same way.
< 50%

Consider next the compound "O[C@H]1CC[C@H](Nc2nccc(-n3nnc4ccccc43)n2)CC1" in the same way.
< 50%

Consider next the compound "O[C@H]1CC[C@H](Nc2nccc(-c3n[nH]c4ccccc34)n2)CC1" in the same way.
99%

Consider next the compound "O=C([C@H]1CC[C@H](Nc2nccc(-n3nnc4ccccc43)n2)CC1)N1CCOCC1" in the same way.
< 50%
